- Target: NHERF2_2, Q15599
- Sequence (Q15599 142-238): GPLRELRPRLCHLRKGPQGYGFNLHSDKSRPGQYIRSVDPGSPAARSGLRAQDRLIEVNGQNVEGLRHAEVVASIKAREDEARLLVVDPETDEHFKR
- Protocol Details: holdup assay
- Set-up: key: below the threshold = too weak to quantify, mostly under pKd 3.1 to 4
- Condition Label: plain residues with an end cap or a label only (N-terminal biotin on a linker: ado-ado)

# Binder, pKd
measured = [
    ("SFISKKEWYV [NECTIN1, Q15223]", "below the threshold"),
    ("STKRKLASAV [NCF1, P14598]", "below the threshold"),
    ("EIPAQSPTCV [FZD10, Q9ULW2]", 3.81),
    ("ILRKSTTTTV [PRR16, Q569H4]", "below the threshold"),
]
